- Test system: SK-MEL-28
- PROCEDURE_TEXT: NCI tumour cell line growth inhibition, 48 h
Calls of active or inactive are those of the source. No stated cut-off is given here; in the data, active = GI50 up to about 1.1 µM and inactive = higher.
I would appreciate it if you answered using one of these outcomes: 1 (active), 0 (inactive)

Previously resolved entries follow.
>>> class_label("OC(c1ccsc1)c1cc2ccccc2s1 (stereo not drawn)")
0
>>> class_label("CC(C)(C)OC/C=C(\\Br)CO")
0
>>> class_label("CCOC(=O)C(O)Cc1cnc2ccccc2n1 (stereo not drawn)")
0
>>> class_label("COCC1N=C(c2cc(OC)c(OC)c(OC)c2-c2cc3c(cc2[C@@H](C)O)OCO3)O[C@H]1c1ccccc1 (stereo partly drawn)")
0
>>> class_label("Cc1ccc(N/N=C/C2=CC(C)(C)C(C#N)(C#N)C(O)=C2C#N)cc1")
0
>>> class_label("C=C(Cl)C(=C)CCC(Cl)C(C)(C)Cl (stereo not drawn)")
0
>>> class_label("Clc1cc2nc(C3CCCO3)[nH]c2cc1Cl (stereo not drawn)")
0
>>> class_label("CC(=O)c1cccc2c1CC1(C2)Cc2ccc3c(c2C1=O)CCC3 (stereo not drawn)")
0

Dear colleague, could you share the recorded outcome for CN(C)c1ccc(-c2[nH]c(=O)c3ccccc3[n+]2C)cc1 when you have a moment?
0

Fill in: this test's call for CC(=O)c1cccc(NC(=O)C(=O)NNc2nnc(S)n2N)c1 is ___
0

Returns: the outcome recorded for COCn1c2ccc(OC(C)=O)cc2c2c(=O)oc(C)nc21 in this assay.
0

Query: recorded result category for CC(C)C(=O)N1C(=O)O[C@@H](c2ccccc2)[C@H]1C in this test
0

State the result this test recorded for CC1=CC(=O)[C@@H](O)[C@]2(C)[C@H]3[C@@]4(O)OC[C@@]35[C@@H](C[C@@H]12)OC(=O)C(OC(=O)CC1=CCCC1)[C@H]5[C@@H](C)[C@H]4O (stereo partly drawn) .
1

* * *

I'd appreciate it if you could supply GI50 values for the items below.
- Tested on: NCI-H460
- PROCEDURE_TEXT: NCI tumour cell line growth inhibition, 48 h
Active and inactive are the calls of the source. Rule as the data show it: active = GI50 up to about 1.1 µM and inactive = higher.

Record excerpt, results attached:
>>> recorded_result("Cc1cc2c(=O)cc(-c3ccc(C(F)(F)F)cc3)oc2c(C(=O)O)c1C")
"> 100 µM (inactive)"
>>> recorded_result("CC([C@H]1CCC2C3CCC4CC5(CC[C@]4(C)C3CC[C@@]21C)c1ccccc1C(=O)N5C)N(C)C (stereo not given in full)")
"21.4 µM (inactive)"
>>> recorded_result("COC(=O)[C@H]1[C@H](C(=O)OC)[C@@H](C)c2c(ccc3c2[nH]c2ccccc23)[C@@H]1C")
"36.8 µM (inactive)"
>>> recorded_result("COC(=O)/C=C\\n1nc(Br)c(=O)[nH]c1=O")
"> 100 µM (inactive)"
>>> recorded_result("CCCCCC(=O)Nc1[nH]nnc1C(N)=O")
"> 100 µM (inactive)"

// for each compound below, give its GI50
1. CN(C)C(=O)C(F)(F)C(c1ccccc1Br)C1C(=O)N(C)C(=O)N(C)C1=O (stereo not given)
2. Cc1ccc(S(=O)(=O)NC(=O)NCC(=O)NCC(=O)O)cc1
3. Cn1ncc(=S)[nH]c1=S
4. Clc1ccc(CCN(CCc2ccc(Cl)c(Cl)c2)CCN2CCCC2)cc1Cl
5. O=c1[nH]c2c(nc1NC13CC4CC(CC(C4)C1)C3)c(=O)oc1ccccc12

1. > 100 µM (inactive)
2. > 100 µM (inactive)
3. > 100 µM (inactive)
4. 1.86 µM (inactive)
5. 70.3 µM (inactive)

* * *

- Tested on: CCRF-CEM
- PROCEDURE_TEXT: NCI tumour cell line growth inhibition, 48 h
Active and inactive are the calls of the source. Cut-off read from the data, not from the text of the source: active = GI50 up to about 1.1 µM and inactive = higher.
Your reply should match one of these outcome classes. active, inactive

>>> class_label("Cc1c(C(=O)CC(=O)C(=O)Nc2cc(Cl)ccc2Cl)[n+]([O-])c2ccccc2[n+]1[O-]")
"inactive"
>>> class_label("COC(=O)N1CC(=O)C(C(=O)NC23CC4CC(CC(C4)C2)C3)C1 (stereo unspecified)")
"inactive"
>>> class_label("O=C(O)/C=C/c1ccc(Oc2ccccc2C(=O)O)o1")
"inactive"
>>> class_label("Cc1cc2c(=O)cc(-c3ccc(C(F)(F)F)cc3)oc2c(C(=O)O)c1C")
"inactive"
>>> class_label("CC1CNC(c2ccc(COc3ccc(C4=NC(C)CN4)cc3)cc2)=N1 (stereo unspecified)")
"inactive"
>>> class_label("O/N=C/[C@H]1COC2(CCCCC2)O1")
"inactive"

Any idea what this test logged for CCCCCn1cnc2c1S(=O)(=O)N(C)C(NC(=O)c1ccccc1)=N2 ?
inactive

Tell me the recorded outcome of this test for O=S(O)c1cc(Cl)cc(Cl)c1O .
inactive

Each compound tested received a call. Report the one for CCCCCC(/C=C/C1CCC(=O)C1)OCOCCOC (stereo unspecified) .
inactive

Please let me know the test result on file for CC(=O)NC(CS)C(=O)O (stereo unspecified) .
inactive

// outcome(item) with item = N#CC12Cc3ccc4c(c3-c3cccc(c31)CCN2C(=O)c1ccccc1)OCO4 (stereo unspecified)
inactive

Would you mind telling me which call this test gave CC(=O)Oc1ccc2c(c1OC(C)=O)CCC1C2=CC[C@]2(C)C(=O)CCC12 (stereo partly specified) ?
inactive

For Cc1ccccc1C(C#N)/C(=N/NC(N)=S)C(=O)Nc1c(C)cccc1C (stereo unspecified) , what call appears in the results of this test?
inactive

Tell me the recorded outcome of this test for CC(C)(CN1CCCCC1)C(/C=C/c1ccc(Cl)cc1)=N\NC(=O)N/N=C(/C=C/c1ccc(Cl)cc1)C(C)(C)CN1CCCCC1 .
inactive

Could you kindly confirm the outcome this assay logged for Cn1cnc([N+](=O)[O-])c1SCC(=O)O ?
inactive

* * *

- System: UACC-62
- PROCEDURE_TEXT: NCI tumour cell line growth inhibition, 48 h
Active and inactive are the calls of the source. Cut-off read from the data, not from the text of the source: active = GI50 up to about 1.1 µM and inactive = higher. Where a SMILES comes first, the peptide text is derived from it. The star is where a group is joined. Fmoc = O=C(OCC1c2ccccc2-c2ccccc21)*; OtBu = CC(C)(C)O*
Outcome (select one): active, inactive

Reference set (3 entries):
>>> class_label("CC(C)C(NC(=O)OCC1c2ccccc2-c2ccccc21)C(=O)NC(CCC(=O)OC(C)(C)C)C(=O)OC(C)(C)C (stereo not given) (Fmoc-Val-Glu(OtBu)-OtBu; configuration not given here)")
"inactive"
>>> class_label("CCN(CC)CC(=O)NC1c2ccccc2Oc2c(C)cccc21 (stereo not given)")
"inactive"
>>> class_label("C[C@@H](NS(=O)(=O)c1ccc(NC(=O)c2ccccc2)cc1)C(=O)O")
"inactive"

For this compound, state the assay outcome: C=C1C(=O)O[C@H]2C1C[C@H](O)/C(C)=C/CC[C@@]1(C)O[C@H]21 (stereo not given in full)
inactive

I'd appreciate the recorded outcome for COc1ccc(-c2oc3cc(OC)c(OC)c(OC)c3c(=O)c2OC)cc1OC from this test.
inactive

How was CSC1CC2C(CC1(C)O)C2(C)C (stereo not given) classified in this test?
inactive

For CCOC(=O)CCCSCCCC(=O)CCCSCCCC(=O)OCC , which call appears in the assay record?
inactive

In this assay, the call recorded for Clc1ccc(N/N=C(\c2ccccc2)c2ccccn2)nc1 was what?
active

Look up the recorded call for Cc1cc(N(CCC#N)CCC#N)ccc1C(/N=N/c1ccc(Cl)cc1)=N\NC(=O)c1cc(Cl)ccc1O in this test.
inactive

Query: recorded result category for Cc1ccccc1C(C#N)/C(=N/NC(N)=S)C(=O)Nc1c(C)cccc1C (stereo not given) in this test
inactive

Check the results log: what was the call for COc1cc(C2c3cc4c(cc3[C@@H](Nc3cccc([N+](=O)[O-])c3)C3COC(=O)[C@H]23)OCO4)cc(OC)c1O (stereo not given in full) ?
inactive

Status in this test for N#C[C@@H](c1nc2ccccc2s1)c1ncccc1[N+](=O)[O-] ?
inactive

How did this test come out for COCn1c2ccc(OC(C)=O)cc2c2c(=O)oc(C)nc21 ?
inactive

// return assay outcome for CC(C)C(C/C=C1/CC(CO)(COC(=O)CC(C(C)C)C(C)C)OC1=O)C(C)C (stereo not given)
inactive

Outcome? CN(C)C(=O)C(F)(F)C(c1ccccc1Br)C1C(=O)N(C)C(=O)N(C)C1=O (stereo not given)
inactive

Tell me the recorded outcome of this test for C=CCOC1=C2CC[C@H](O)[C@@]2(C)CCC1=O .
inactive

Tell me the assay call for CN1CCc2nc(N)nc(-c3nc(N)nc4c3CN(C)CC4)c2C1 please.
inactive

What call does the record list for COc1ccc(N2C(=O)c3c(c4[nH]c5ccccc5c4c4ccc(C(C)(C)C)cc34)C2=O)cc1 ?
inactive

Can you look up the reported call for CCN(CC)C(=O)C1=C(C)NC(C)=C(C(=O)N(CC)CC)C1 for me?
inactive

Per the assay record, what outcome was assigned to ON[C@@H]1C=C[C@H](n2cnc3c(NC4CC4)ncnc32)C1 ?
inactive
